# System: A549
# Test Method Notes: NCI tumour cell line growth inhibition, 48 h
The source made the active and inactive calls. Rule as the data show it: active = GI50 up to about 1.1 µM and inactive = higher.
Test Readout: GI50

CCOC(=O)Cn1c(C)nc2nn(Cc3ccccc3)cc2c1=O :: > 100 µM (inactive)

Continue with the next compound.
The compound identified as CC(C)=CCC/C(C)=C/CC/C(C)=C/Cc1c(O)c2ccccc2oc1=O registered its GI50 at 65.6 µM (inactive)

----------
# System: HOP-92
# Test Method Notes: NCI tumour cell line growth inhibition, 48 h
Calls of active or inactive are those of the source. No stated cut-off is given here; in the data, active = GI50 up to about 1.1 µM and inactive = higher.
Test Readout: GI50

// worked examples, GI50 included
CC1=NN(c2cccc(Cl)c2)C2(SCC(=O)N2c2nc3ccccc3s2)/C1=C\c1ccc(N(C)C)cc1 (stereo not given) :: 23.7 µM (inactive)
CCOC(=O)C1=C(NC(C)(C)C)OC/C1=N\NC(=O)Cc1ccccc1 :: > 100 µM (inactive)
CC(C)N(C(=O)C12C3(C(=O)C(C)(C)C)C4C5(C#N)C3C1(C(=O)C(C)(C)C)C5C42C(=O)C(C)(C)C)C(C)C (stereo not given) :: 66.2 µM (inactive)
COC(=O)c1cc(O)nc(O)n1 :: > 100 µM (inactive)
COc1nc2ncc([C@@H](O)[C@H](O)CO)nc2c(=O)n1C :: > 100 µM (inactive)
Clc1ccc(-c2cn3c(nc4ccccc43)c(-c3ccccc3)n2)cc1 :: 18 µM (inactive)
c1ncc(C23C4C5C6C4C2C6C53)[nH]1 (stereo not given) :: > 100 µM (inactive)
O=[N+]([O-])c1ccc(-c2csc(=[N+]3CCCCC3)s2)cc1 :: 26.1 µM (inactive)
COc1cc([C@@H]2OCC3C(c4ccc5c(c4)OCO5)OCC32)cc(OC)c1OC (stereo not given in full) :: 8.97 µM (inactive)
OCn1nc2c(C3OCCO3)cc3ccccc3n2c1=S :: > 100 µM (inactive)

Reported GI50 for CN(Cc1cnc2nc(N)nc(N)c2n1)c1ccc(C(=O)NCCCS(=O)(=O)O)cc1 was 0.0264 µM (active)

Lab note: measured GI50 of Cc1cc(C)nc(Sc2c([N+](=O)[O-])ncn2C)n1 was > 100 µM (inactive)

// field: GI50; key: CCOC(=O)c1cn(-c2ccc([N+](=O)[O-])cc2)c(=S)n2c1nc1ccccc12 ; value = 18.5 µM (inactive)

For Cn1cc2ccccc2c1-c1nc(F)nc(Oc2ccc3c(c2)CC[C@@H]2C3CC[C@@]3(C)C2C[C@H](O)[C@@H]3O)n1 (stereo not given in full) the molecule record lists GI50 as 22.3 µM (inactive)

For record CC(C)=CCC/C(C)=C/CC/C(C)=C/Cc1c(O)c2ccccc2oc1=O the listed GI50 is > 100 µM (inactive)

Looking up COc1ccc(N2C(=O)/C(=C/c3ccc(N(CCC#N)CCC#N)cc3C)N=C2/C=C\c2ccccc2)cc1 , I found its GI50 recorded as > 100 µM (inactive)

# GI50 of c1ccc2c(c1)c1c(n2CCOCCCN2CCCCC2)CCCC1 = 22.7 µM (inactive)

----------
# Tested on: HT-29
# Test Method Notes: NCI tumour cell line growth inhibition, 48 h
Calls of active or inactive are those of the source. Cut-off read from the data, not from the text of the source: active = GI50 up to about 1.1 µM and inactive = higher.
Give your call using only these classes: active, inactive

c1ncc(C23C4C5C6C4C2C6C53)[nH]1 (centres undefined) :: inactive
CCC(CN(C)C)C(=O)c1ccco1 (centres undefined) :: inactive
O=CC1OC(=O)c2cc(O)c(O)c(O)c2-c2c(cc(O)c(O)c2O)C(=O)OC1C1OC(=O)c2cc(O)c(O)c(O)c2-c2c(O)c(O)c3oc(=O)c4c(c(O)c(O)c5oc(=O)c2c3c54)-c2c(cc(O)c(O)c2O)C(=O)OCC1O (centres undefined) :: inactive

Exam item: Dear all, I need the recorded test outcome for O=C1/C(=C/c2cccs2)NC(=S)N1CN1CCOCC1 , thank you.
Marked response: inactive

Exam item: What call does the record list for CP(C)C.[Ag][I] ?
Marked response: inactive

Exam item: Could you please tell me the result logged for Oc1cccc2c1[nH]c1c(C3=C[C@@]4(O)CC/C=C\CCCCN5CC[C@@H]3[C@]3(CC6/C=C\CCCCN6[C@H]34)C5)nccc12 (some centres undefined) in this assay?
Marked response: active

Exam item: Query: recorded result category for Cn1cccc1-c1ccc(-c2ccc(CO)[se]2)[se]1 in this test
Marked response: inactive

Exam item: Record lookup: outcome of this test for CCC(C)[C@H](NC(=O)N[C@H](C)c1ccccc1)C(=O)OC (some centres undefined) ?
Marked response: inactive

Exam item: For Nc1nc(N)c2cc(Sc3cccc(C(F)(F)F)c3)ccc2n1 , which call appears in the assay record?
Marked response: inactive
